Entry source: patent US20180298070A1

Assign Agonist activity (EC50, M) to each entry below.
# Tested Target: T1, human GLP-1R (human), P43220
# T1 chain: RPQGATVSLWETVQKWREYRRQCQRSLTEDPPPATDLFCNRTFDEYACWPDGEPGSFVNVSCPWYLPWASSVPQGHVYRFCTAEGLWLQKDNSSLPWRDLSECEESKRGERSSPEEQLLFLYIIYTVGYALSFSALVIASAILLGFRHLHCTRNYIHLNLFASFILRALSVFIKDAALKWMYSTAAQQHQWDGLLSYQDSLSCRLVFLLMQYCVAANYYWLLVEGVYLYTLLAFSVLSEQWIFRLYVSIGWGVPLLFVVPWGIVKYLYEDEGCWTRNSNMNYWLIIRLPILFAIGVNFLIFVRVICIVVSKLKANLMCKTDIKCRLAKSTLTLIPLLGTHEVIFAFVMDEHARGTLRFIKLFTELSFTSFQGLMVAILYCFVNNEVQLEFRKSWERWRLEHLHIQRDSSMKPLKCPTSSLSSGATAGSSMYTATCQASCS
Starred links: 1 amine or outer side, 2 acyl side, 3 side chain; linkers in the order of their positions; H or OH if unused. Non-standard residues stand in square brackets, D forms with d. Groups on a side chain read outwards from the residue. Primed or numbered codes have the meaning given here. No end group written: not given here. *: point of attachment. C20 diacid = O=C(O)CCCCCCCCCCCCCCCCCCC(=O)*; γGlu = O=C(O)[C@H](CCC(=O)[*:2])N[*:1]; NMeY = CN[C@@H](Cc1ccc(O)cc1)C(=O)O; Stearoyl = CCCCCCCCCCCCCCCCCC(=O)*; αMeF = C[C@](N)(Cc1ccccc1)C(=O)O; Lauroyl = CCCCCCCCCCCC(=O)*; dIva = CC[C@@](C)(N)C(=O)O; Iva = CC[C@](C)(N)C(=O)O; PEG2′ = not defined here; PEG3′ = not defined here; Aib = CC(C)(N)C(=O)O

Provide only the value of recorded Agonist activity (EC50, M) for Y[Aib]EGTFISDYSIALDRK([PEG(2)-C20 diacid])HQQDFVNWLLAQRPSSGAPPPS (not fully specified (C-terminus); ends and bridges not checked) [Compound 234]
> 1e-06 M

Give the value of Agonist activity (EC50, M) reported for the following: Y[Aib]EGTFISDYSIALDRK([PEG(2)-C20 diacid])AQQNFVNW[Iva]LAQRPSSGAPPPS (not fully specified (C-terminus); ends and bridges not checked) [Compound 408]
> 1e-06 M

Tell me its Agonist activity (EC50, M) given [NMeY][Aib]EGTFISDYSI[dIva]LDRIAQ[Aib]NFVNWLLAQRPSSGAPPPSR (ends and bridges not checked) [Compound 83] as the entry.
1.7e-07 M

Quick one: give measured Agonist activity (EC50, M) for Y[Aib]EGTFISDYSK([PEG2′-Lauroyl])ALDRIHQ[Aib]N[αMeF]VNW[Iva]LAQRPSSGAPPPS (not fully specified (C-terminus); ends and bridges not checked) [Compound 216]
1.5e-07 M

Please report the measured Agonist activity (EC50, M) for Me-Y[Aib]EGTFISDYSIALDR[Aib]AQQSFVNWLLAQRPSSGAPPPSR (not fully specified (residue 1, C-terminus); ends and bridges not checked) [Compound 137]
> 1e-06 M

State its Agonist activity (EC50, M): Y[Aib]EGTFISDYSIALDRK([PEG(2)-dodec])HQQDFVNWLLAQRPSSGAPPPS (not fully specified (C-terminus); ends and bridges not checked) [Compound 232]
> 1e-06 M

Supply measured Agonist activity (EC50, M) of Y[Aib]EGTFISDYSK([PEG2′-Lauroyl])ALDRIHQQDFVNWLLAQRPSSGAPPPSR (ends and bridges not checked) [Compound 180] in your reply.
> 1e-06 M

Give the value of Agonist activity (EC50, M) reported for the following: Y[Aib]EGTFISDYSK([PEG(2)-Lauroyl])ALDR[Aib]AQQDFVNWLLAQRPSSGAPPPS (ends and bridges not checked) [Compound 205]
2.9e-08 M

Tell me Agonist activity (EC50, M) reported for Y[Aib]EGTFISDYSK([PEG(2)-Lauroyl])ALDRIHQ[Aib]NFVNWLLAQRPSSGAPPPS (ends and bridges not checked) [Compound 209]
> 1e-06 M

Find the measured Agonist activity (EC50, M) of Y[Aib]EGTFISDYSK([PEG3′-PEG3′-γGlu-C20 diacid])ALDRIHQQDFVNWLLAQRPSSGAPPPS (not fully specified (C-terminus); ends and bridges not checked) [Compound 238] and report it.
> 1e-06 M

Give Agonist activity (EC50, M) for the following binder: Y[Aib]EGTFISDYSK([PEG(2)-Lauroyl])ALDRIAQQDFVN[αMeF]LLAQRPSSGAPPPSR (ends and bridges not checked) [Compound 194]
2.5e-08 M

Give recorded Agonist activity (EC50, M). [NMeY][Aib]EGTFISDYSIALDRIAQQS[αMeF]VNW[Iva]LAQRPSSGAPPPSR (not fully specified (C-terminus); ends and bridges not checked) [Compound 75]
> 1e-06 M

Give Agonist activity (EC50, M) for [NMeY][Aib]EGTFISDYSIALDR[Aib]AQ[Aib]NFVNWLLAQRPSSGAPPPSR (ends and bridges not checked) [Compound 82]
1e-07 M

# return recorded Agonist activity (EC50, M) for input Y[Aib]EGTFISDYSK([PEG3′-PEG3′-γGlu-C20 diacid])ALDR[Aib]HQ[Aib]NFVNW[Iva]LAQRPSSGAPPPS (not fully specified (C-terminus); ends and bridges not checked) [Compound 242]
> 1e-06 M

Assign Agonist activity (EC50, M) to the following record: Y[Aib]EGTFISDYSK([PEG(2)-Lauroyl])ALDR[Aib]HQQSFVNW[Iva]LAQRPSSGAPPPS (not fully specified (C-terminus); ends and bridges not checked) [Compound 224]
> 1e-06 M

Please report Agonist activity (EC50, M) for the following binder: Y[Aib]EGTVVSLYSK([Gly-Gly-Gly-Gly-Stearoyl])[Aib]LDRQAQ[Aib]EFVRWLLAQR (ends and bridges not checked) [Compound 258]
> 1e-06 M
